The values you see were collected from patent US20240409643A1.

- system-name: T1, 125I-labeled NMDAR2B immunogen peptide (human)
- T1 construct: also called ^125I-labeled (radiolabel on the N-terminal tyrosine) NMDAR2B immunogen peptide
- T1 peptide: Y(125I)KDAHEKDDF-NH2
- protocol-details: radioimmunoassay with 125I-labeled and free peptide
Ends that are not written are not given here. * marks the point of attachment. 125I = [125I]*

# binder, binding result
rows = [
    ("Fab4 (Fab, V domains shown, also called Ab4 (IgG form with the same VH and VL)) VH: EVQLVESGGGLVQPGGSLRLSCAASGFNLYYYSIHWVRQAPGKGLEWVAYISSYYGYTYYADSVKGRFTISADTSKNTAYLQMNSLRAEDTAVYYCARYYPGGWHAFDYWGQGTLVTVSS VL: DIQMTQSPSSLSASVGDRVTITCRASQSVSSAVAWYQQKPGKAPKLLIYSASSLYSGVPSRFSGSRSGTDFTLTISSLQPEDFATYYCQQYYGYGYPITFGQGTKVEIK", "no binding"),
    ("Fab10 (Fab, V domains shown, also called Ab10 (IgG form with the same VH and VL)) VH: EVQLVESGGGLVQPGGSLRLSCAASGFNLYSSYMHWVRQAPGKGLEWVASISSSYGYTYYADSVKGRFTISADTSKNTAYLQMNSLRAEDTAVYYCARTVRGSKKPYFSGWAMDYWGQGTLVTVSS VL: DIQMTQSPSSLSASVGDRVTITCRASQSVSSAVAWYQQKPGKAPKLLIYSASSLYSGVPSRFSGSRSGTDFTLTISSLQPEDFATYYCQQGSYLITFGQGTKVEIK", "no binding"),
    ("Fab6 (Fab, V domains shown, also called Ab6 (IgG form with the same VH and VL)) VH: EVQLVESGGGLVQPGGSLRLSCAASGFNIYSSYIHWVRQAPGKGLEWVASISSSYGYTYYADSVKGRFTISADTSKNTAYLQMNSLRAEDTAVYYCARTVRGSKKPYFSGWAMDYWGQGTLVTVSS VL: DIQMTQSPSSLSASVGDRVTITCRASQSVSSAVAWYQQKPGKAPKLLIYSASSLYSGVPSRFSGSRSGTDFTLTISSLQPEDFATYYCQQGGSLITFGQGTKVEIK", "no binding"),
]
